# system name: Serine/threonine-protein kinase Chk1 (Homo sapiens)
# Sequence (O14757 whole entry): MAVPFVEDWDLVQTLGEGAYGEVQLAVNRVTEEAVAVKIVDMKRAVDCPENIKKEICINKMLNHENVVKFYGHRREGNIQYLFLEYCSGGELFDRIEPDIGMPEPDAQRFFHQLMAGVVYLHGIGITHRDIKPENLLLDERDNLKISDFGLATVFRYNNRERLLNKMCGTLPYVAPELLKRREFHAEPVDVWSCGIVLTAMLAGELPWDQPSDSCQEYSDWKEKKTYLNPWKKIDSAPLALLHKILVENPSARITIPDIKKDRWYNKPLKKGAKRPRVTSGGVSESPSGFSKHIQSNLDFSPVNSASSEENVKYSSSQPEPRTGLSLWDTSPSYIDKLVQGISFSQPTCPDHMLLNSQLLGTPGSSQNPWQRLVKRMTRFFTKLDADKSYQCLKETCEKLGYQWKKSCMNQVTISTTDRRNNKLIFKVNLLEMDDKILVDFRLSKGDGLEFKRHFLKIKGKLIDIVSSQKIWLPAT
quantity: IC50 (nM)
Please reply with the bare figure in nM and do not write the unit itself.

Given the entry Cc1cn2c(-c3cn[nH]c3)cnc2c(Nc2cc(C(NC(C)(C)C)c3ccccn3)ns2)n1 (single isomer, unassigned; (+)) , what IC50 was observed with Serine/threonine-protein kinase Chk1 (Homo sapiens)?
7

* * *

# assay overview: Intrinsic clearance in cryopreserved rat hepatocytes assessed per million cells
# Format: ADME, cell-based, Hepatocyte
# details: read-out: CLH
quantity: hepatocyte CLint (µL/min/1e6 cells)
Please reply with the bare figure in µL/min/1e6 cells and do not write the unit itself.

Quick one: hepatocyte CLint of Cc1cn2c(-c3cn[nH]c3)cnc2c(Nc2cc(C(NC(C)(C)C)c3ccccn3)ns2)n1 (single isomer, unassigned; (+)) ?
11.5

* * *

Recorded clearance, one value per entry.
# assay overview: Clearance in mouse at 3 mg/kg, iv
# Format: ADME, organism-based
# details: in vivo
Please reply with the bare figure in mL/min/kg and do not write the unit itself.

Quick one: clearance of Cc1cn2c(-c3cn[nH]c3)cnc2c(Nc2cc(C(NC(C)(C)C)c3ccccn3)ns2)n1 (single isomer, unassigned; (+)) ?
50

New cases:
Quick one: clearance of Cc1cn2c(-c3cn[nH]c3)cnc2c(Nc2cc(Cc3ccccn3)ns2)n1 ?
118

* * *

# system name: Rho-associated protein kinase 2 (Homo sapiens)
# Sequence (O75116 whole entry): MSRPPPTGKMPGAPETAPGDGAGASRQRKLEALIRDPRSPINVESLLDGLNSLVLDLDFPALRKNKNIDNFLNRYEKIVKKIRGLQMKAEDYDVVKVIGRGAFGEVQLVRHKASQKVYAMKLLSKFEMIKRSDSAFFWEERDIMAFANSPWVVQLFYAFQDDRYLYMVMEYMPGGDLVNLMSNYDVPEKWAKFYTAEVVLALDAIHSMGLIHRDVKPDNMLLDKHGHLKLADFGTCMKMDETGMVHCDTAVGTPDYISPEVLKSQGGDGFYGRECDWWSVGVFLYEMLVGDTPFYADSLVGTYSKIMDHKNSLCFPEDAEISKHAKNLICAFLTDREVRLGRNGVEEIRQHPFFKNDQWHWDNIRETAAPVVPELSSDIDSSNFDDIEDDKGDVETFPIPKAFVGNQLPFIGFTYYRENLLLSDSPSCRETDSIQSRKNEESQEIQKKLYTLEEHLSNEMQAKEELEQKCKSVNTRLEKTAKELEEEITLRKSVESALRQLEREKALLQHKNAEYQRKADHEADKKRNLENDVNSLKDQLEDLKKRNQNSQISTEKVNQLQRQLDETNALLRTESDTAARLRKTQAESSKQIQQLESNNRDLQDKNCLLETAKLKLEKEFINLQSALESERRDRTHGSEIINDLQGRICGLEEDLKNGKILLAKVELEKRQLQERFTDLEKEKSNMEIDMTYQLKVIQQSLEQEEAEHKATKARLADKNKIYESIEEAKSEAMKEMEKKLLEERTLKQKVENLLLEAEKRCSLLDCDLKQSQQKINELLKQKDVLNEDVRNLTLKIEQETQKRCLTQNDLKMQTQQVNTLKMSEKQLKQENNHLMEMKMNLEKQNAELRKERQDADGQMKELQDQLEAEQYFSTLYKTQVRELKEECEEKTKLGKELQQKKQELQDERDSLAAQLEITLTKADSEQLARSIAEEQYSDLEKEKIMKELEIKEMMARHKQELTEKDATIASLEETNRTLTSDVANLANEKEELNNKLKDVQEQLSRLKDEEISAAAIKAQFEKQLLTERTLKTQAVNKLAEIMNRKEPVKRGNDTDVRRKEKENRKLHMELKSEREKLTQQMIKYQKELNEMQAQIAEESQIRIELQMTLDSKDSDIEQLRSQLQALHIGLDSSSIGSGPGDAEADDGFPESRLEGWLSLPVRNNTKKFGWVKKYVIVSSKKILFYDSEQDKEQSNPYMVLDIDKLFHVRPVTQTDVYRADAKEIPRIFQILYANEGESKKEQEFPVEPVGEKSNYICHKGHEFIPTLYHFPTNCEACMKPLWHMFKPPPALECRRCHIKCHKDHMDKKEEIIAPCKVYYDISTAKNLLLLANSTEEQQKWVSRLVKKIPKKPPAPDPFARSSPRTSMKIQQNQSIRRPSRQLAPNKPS
pIC50: −log10 of the molar value.
quantity: pIC50

Given the entry Cc1cn2c(-c3cn[nH]c3)cnc2c(Nc2cc(C(NC(C)(C)C)c3ccccn3)ns2)n1 (single isomer, unassigned; (+)) , what pIC50 was observed with Rho-associated protein kinase 2 (Homo sapiens)?
< 6.00

* * *

# system name: Aurora kinase B (Homo sapiens)
# Sequence (Q96GD4 whole entry): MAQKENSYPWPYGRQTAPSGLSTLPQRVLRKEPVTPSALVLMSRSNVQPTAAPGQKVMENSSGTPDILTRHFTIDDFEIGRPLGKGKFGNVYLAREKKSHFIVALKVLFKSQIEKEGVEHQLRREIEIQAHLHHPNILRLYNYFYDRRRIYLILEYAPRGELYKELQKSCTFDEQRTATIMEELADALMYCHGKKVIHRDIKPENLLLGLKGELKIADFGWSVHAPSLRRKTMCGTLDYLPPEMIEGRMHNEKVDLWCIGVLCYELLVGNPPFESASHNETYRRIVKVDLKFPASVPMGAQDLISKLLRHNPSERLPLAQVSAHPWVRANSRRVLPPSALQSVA
# assay overview: Inhibition of Aurora B in human HCT116 cells assessed as reduction in phosphorylation of Histone H3 at Ser10 residue incubated for 1 hr by Hoechst 33342 dye-based immunofluorescence microscopic method
quantity: pEC50
Interpret pEC50 as the negative base-10 log of the concentration measured in mol/L.

Quick one: pEC50 of Cc1ccnc(Cc2cc(Nc3nc(C)cn4c(-c5cn[nH]c5)cnc34)sn2)c1 ?
6.42

New cases:
Quick one: pEC50 of Cc1cn2c(-c3cn[nH]c3)cnc2c(Nc2cc(Cc3cccc(CO)n3)ns2)n1 ?
6.25

* * *

# assay overview: Protein binding in human plasma
# Format: ADME, cell-free
# details: read-out: PPB (converted)
quantity: fraction unbound
The answer should be a number; do not append a unit.

Quick one: fraction unbound of Cc1cn2c(-c3cn[nH]c3)cnc2c(Nc2cc(Cc3ccccn3)ns2)n1 ?
0.009

For the next question, use this molecule.
Quick one: fraction unbound of Cc1cn2c(-c3cn[nH]c3)cnc2c(Nc2cc(C(NC(C)(C)C)c3ccccn3)ns2)n1 (single isomer, unassigned; (+)) ?
0.012

* * *

Reported values: pKd for Aurora kinase B (Homo sapiens, UniProt Q96GD4), one per item.
Interpret pKd as the negative base-10 log of the concentration measured in mol/L.

Quick one: pKd of Cc1cn2c(-c3cn[nH]c3)cnc2c(Nc2cc(C(NC(C)(C)C)c3ccccn3)ns2)n1 (single isomer, unassigned; (+)) ?
11.00

For the next question, use this compound.
Quick one: pKd of Cc1cn2c(-c3cn[nH]c3)cnc2c(Nc2cc(Cc3ccccn3)ns2)n1 ?
10.00

* * *

# assay overview: Half life in dog at 1 mg/kg, iv
# Assay type: ADME, organism-based, Canis lupus familiaris
# details: in vivo
quantity: half-life (min)
Please reply with the bare figure in min and do not write the unit itself.

Quick one: half-life of Cc1cn2c(-c3cn[nH]c3)cnc2c(Nc2cc(Cc3ccccn3)ns2)n1 ?
48

New cases:
Quick one: half-life of Cc1cn2c(-c3cn[nH]c3)cnc2c(Nc2cc(C(NC(C)(C)C)c3ccccn3)ns2)n1 (single isomer, unassigned; (+)) ?
276

* * *

# system name: Cytochrome P450 2D6 (Homo sapiens, UniProt P10635)
# Sequence (P10635 whole entry): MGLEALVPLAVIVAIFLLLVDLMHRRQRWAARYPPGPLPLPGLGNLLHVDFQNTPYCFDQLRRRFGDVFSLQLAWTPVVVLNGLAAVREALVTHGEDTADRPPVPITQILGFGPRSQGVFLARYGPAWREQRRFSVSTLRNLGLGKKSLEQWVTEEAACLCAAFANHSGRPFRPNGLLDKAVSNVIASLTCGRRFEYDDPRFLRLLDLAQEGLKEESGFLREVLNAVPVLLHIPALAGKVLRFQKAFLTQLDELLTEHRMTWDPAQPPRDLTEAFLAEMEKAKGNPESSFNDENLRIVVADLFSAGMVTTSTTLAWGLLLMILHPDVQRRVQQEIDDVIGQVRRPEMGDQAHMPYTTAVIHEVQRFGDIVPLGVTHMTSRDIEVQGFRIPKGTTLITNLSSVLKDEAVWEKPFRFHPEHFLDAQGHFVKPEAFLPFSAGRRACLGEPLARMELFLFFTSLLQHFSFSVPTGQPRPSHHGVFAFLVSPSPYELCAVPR
quantity: IC50 (µM)
Please reply with the bare figure in µM and do not write the unit itself.

Quick one: IC50 of Cc1cn2c(-c3cn[nH]c3)cnc2c(Nc2cc(C(NC(C)(C)C)c3ccccn3)ns2)n1 (single isomer, unassigned; (+)) ?
11.5

* * *

# system name: Mitogen-activated protein kinase 1 (Homo sapiens, UniProt P28482)
# Sequence (P28482 whole entry): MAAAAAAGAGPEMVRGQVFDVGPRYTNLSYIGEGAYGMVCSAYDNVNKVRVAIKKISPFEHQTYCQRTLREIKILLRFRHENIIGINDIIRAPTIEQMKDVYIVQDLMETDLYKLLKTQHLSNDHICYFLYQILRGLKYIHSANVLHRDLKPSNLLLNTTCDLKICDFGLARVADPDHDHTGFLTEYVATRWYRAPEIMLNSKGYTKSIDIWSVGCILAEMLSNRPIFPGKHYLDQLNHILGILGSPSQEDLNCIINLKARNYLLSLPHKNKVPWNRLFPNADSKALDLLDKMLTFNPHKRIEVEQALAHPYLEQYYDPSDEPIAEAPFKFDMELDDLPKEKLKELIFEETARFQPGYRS
# assay overview: Inhibition of ERK2 (unknown origin)
Recorded IC50, one value per entry.

Quick one: IC50 of Cc1cn2c(-c3cn[nH]c3)cnc2c(Nc2cc(Cc3ccccn3)ns2)n1 ?
> 500 nM

Next entry: Cc1cn2c(-c3cn[nH]c3)cnc2c(Nc2cc(C(NC(C)(C)C)c3ccccn3)ns2)n1 (single isomer, unassigned; (+))
> 1000 nM

New cases:
Quick one: IC50 of CCN(CCO)Cc1cc(Nc2nc(C)cn3c(-c4cn[nH]c4)cnc23)sn1 ?
> 500 nM

* * *

Recorded IC50, one value per entry.
# system name: Ribosomal protein S6 kinase alpha-3 (Homo sapiens)
# Sequence (P51812 whole entry): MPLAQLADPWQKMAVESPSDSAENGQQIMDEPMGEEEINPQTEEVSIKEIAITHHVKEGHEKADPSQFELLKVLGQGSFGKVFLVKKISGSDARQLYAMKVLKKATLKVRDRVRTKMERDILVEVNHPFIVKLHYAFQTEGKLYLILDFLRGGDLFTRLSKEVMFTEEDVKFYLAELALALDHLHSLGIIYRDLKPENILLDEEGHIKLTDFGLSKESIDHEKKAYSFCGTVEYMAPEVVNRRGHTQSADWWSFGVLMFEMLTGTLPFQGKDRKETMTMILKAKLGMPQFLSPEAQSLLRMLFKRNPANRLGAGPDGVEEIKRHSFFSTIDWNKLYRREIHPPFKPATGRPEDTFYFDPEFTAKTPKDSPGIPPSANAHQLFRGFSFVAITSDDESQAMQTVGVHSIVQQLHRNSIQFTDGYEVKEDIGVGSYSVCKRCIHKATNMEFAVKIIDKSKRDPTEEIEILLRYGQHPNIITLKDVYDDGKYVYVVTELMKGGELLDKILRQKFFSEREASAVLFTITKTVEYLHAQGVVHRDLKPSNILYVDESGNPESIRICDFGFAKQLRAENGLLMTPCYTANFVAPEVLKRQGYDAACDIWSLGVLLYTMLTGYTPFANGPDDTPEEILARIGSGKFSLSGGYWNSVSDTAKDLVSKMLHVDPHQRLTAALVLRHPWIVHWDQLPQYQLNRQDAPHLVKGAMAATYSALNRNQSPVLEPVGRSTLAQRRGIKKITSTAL
Please reply with the bare figure in nM and do not write the unit itself.

Quick one: IC50 of Cc1cn2c(-c3cn[nH]c3)cnc2c(Nc2cc(Cc3ccccn3)ns2)n1 ?
260

For the next question, use this compound.
Quick one: IC50 of CCN(CCO)Cc1cc(Nc2nc(C)cn3c(-c4cn[nH]c4)cnc23)sn1 ?
180

* * *

# assay overview: Intrinsic clearance in cryopreserved monkey hepatocytes assessed per million cells
# Format: ADME, cell-based, Macaca mulatta, Hepatocyte
# details: rhesus monkey, read-out: CLH
quantity: hepatocyte CLint
Give your result as the value with the unit written after it.

Quick one: hepatocyte CLint of Cc1cn2c(-c3cn[nH]c3)cnc2c(Nc2cc(C(NC(C)(C)C)c3ccccn3)ns2)n1 (single isomer, unassigned; (+)) ?
27.6 µL/min/1e6 cells

* * *

# assay overview: Oral bioavailability in monkey at 10 mg/kg
# Type: ADME, organism-based, Macaca mulatta
# details: rhesus monkey, in vivo
quantity: bioavailability (%)
Please reply with the bare figure in % and do not write the unit itself.

Quick one: bioavailability of Cc1cn2c(-c3cn[nH]c3)cnc2c(Nc2cc(C(NC(C)(C)C)c3ccccn3)ns2)n1 (single isomer, unassigned; (+)) ?
8

* * *

# system name: Inhibitor of nuclear factor kappa-B kinase subunit beta (Homo sapiens, UniProt O14920)
# Sequence (O14920 whole entry): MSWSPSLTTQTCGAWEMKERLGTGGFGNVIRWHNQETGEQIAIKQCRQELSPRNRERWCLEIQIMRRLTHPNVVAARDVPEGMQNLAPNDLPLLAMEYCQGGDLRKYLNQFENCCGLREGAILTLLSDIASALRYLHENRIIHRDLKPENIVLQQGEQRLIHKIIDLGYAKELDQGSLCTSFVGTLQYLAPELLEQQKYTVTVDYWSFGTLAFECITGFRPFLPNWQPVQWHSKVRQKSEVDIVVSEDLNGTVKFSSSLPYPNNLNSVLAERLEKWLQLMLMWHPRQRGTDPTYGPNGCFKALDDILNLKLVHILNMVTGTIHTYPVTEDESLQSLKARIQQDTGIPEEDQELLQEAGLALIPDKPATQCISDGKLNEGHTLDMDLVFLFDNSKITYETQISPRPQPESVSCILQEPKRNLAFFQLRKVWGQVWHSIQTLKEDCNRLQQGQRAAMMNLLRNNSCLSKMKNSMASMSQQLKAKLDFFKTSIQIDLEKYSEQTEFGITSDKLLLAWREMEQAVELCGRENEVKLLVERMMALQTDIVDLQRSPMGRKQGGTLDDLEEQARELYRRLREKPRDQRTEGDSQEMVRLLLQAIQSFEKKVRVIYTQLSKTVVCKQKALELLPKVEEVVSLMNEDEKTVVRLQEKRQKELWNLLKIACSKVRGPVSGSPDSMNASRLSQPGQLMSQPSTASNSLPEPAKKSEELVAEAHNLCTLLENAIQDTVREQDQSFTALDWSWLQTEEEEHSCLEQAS
# assay overview: Inhibition of IKKB (unknown origin)
pIC50: −log10 of the molar value.
quantity: pIC50

Quick one: pIC50 of Cc1cn2c(-c3cn[nH]c3)cnc2c(Nc2cc(Cc3ccccn3)ns2)n1 ?
< 6.30

Next entry: CCN(CCO)Cc1cc(Nc2nc(C)cn3c(-c4cn[nH]c4)cnc23)sn1
< 6.30

For the next question, use this compound.
Quick one: pIC50 of Cc1cn2c(-c3cn[nH]c3)cnc2c(Nc2cc(C(NC(C)(C)C)c3ccccn3)ns2)n1 (single isomer, unassigned; (+)) ?
< 6.00

* * *

# system name: Glycogen synthase kinase-3 beta (Homo sapiens)
# Sequence (P49841 whole entry): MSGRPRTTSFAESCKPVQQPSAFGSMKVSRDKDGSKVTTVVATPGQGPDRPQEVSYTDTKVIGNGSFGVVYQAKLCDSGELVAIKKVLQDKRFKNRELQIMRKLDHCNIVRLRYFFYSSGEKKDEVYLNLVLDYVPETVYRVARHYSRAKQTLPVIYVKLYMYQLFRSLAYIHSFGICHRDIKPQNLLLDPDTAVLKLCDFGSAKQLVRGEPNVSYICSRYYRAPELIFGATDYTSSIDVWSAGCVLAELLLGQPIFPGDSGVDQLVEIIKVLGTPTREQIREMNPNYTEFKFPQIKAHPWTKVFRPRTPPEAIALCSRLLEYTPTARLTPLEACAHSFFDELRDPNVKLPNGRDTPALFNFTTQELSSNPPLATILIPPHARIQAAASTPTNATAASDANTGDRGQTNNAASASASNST
quantity: IC50

Given the entry Cc1cn2c(-c3cn[nH]c3)cnc2c(Nc2cc(C(NC(C)(C)C)c3ccccn3)ns2)n1 (single isomer, unassigned; (+)) , what IC50 was observed with Glycogen synthase kinase-3 beta (Homo sapiens)?
> 1000 nM

* * *

# assay overview: AUC (0 to 6 hrs) in rat at 10 mg/kg, po
# Assay type: ADME, organism-based
# Set-up: time < 6 hr, dose 10 mg/kg, route oral
# details: in vivo
quantity: AUC(0-t) at 6 h (µM·h)
Please reply with the bare figure in µM·h and do not write the unit itself.

Quick one: AUC(0-t) at 6 h of Cc1cn2c(-c3cn[nH]c3)cnc2c(Nc2cc(Cc3ncccc3C)ns2)n1 ?
1.6

Next entry: Cc1cn2c(-c3cn[nH]c3)cnc2c(Nc2cc(C(c3ccccn3)N3CCCCC3)ns2)n1 (racemic)
0.21

Next entry: Cc1ccnc(Cc2cc(Nc3nc(C)cn4c(-c5cn[nH]c5)cnc34)sn2)c1
4.6

Next entry: COc1cccc(Cc2cc(Nc3nc(C)cn4c(-c5cn[nH]c5)cnc34)sn2)n1
5.5

Next entry: Cc1cn2c(-c3cn[nH]c3)cnc2c(Nc2cc(C(NC3CCCC3)c3ccccn3)ns2)n1 (racemic)
0.67

Next entry: Cc1cn2c(-c3cn[nH]c3)cnc2c(Nc2cc(C(c3ccccn3)N3CCCC3)ns2)n1 (racemic)
0.02

New cases:
Quick one: AUC(0-t) at 6 h of Cc1cn2c(-c3cn[nH]c3)cnc2c(Nc2cc(Cc3ncccn3)ns2)n1 ?
1.8

Next entry: Cc1cn2c(-c3cn[nH]c3)cnc2c(Nc2cc(Cc3nccs3)ns2)n1
3.9

Next entry: Cc1ccc(Cc2cc(Nc3nc(C)cn4c(-c5cn[nH]c5)cnc34)sn2)nc1
3.4
